Listed here: items and their measured mortality.
# System: Mythimna separata
# protocol.details: Insecticidal activity against Mythimna separata (Oriental armyworm) pre-third-instar larvae fed on 1 mg/ml compound pre-treated wheat leaves assessed as insect mortality measured after 10 days by leaf-dipping method
# Format: functional

# test.smiles, display.unit, mortality
data = [
    ("COc1cc([C@@H]2c3cc4c(cc3[C@@H](OC(=O)c3cccc(Cl)c3)[C@H]3COC(=O)[C@H]23)OCO4)cc2nc3ccccc3nc12", "%", 6.7),
    ("CCCCCCCCCCC(=O)O[C@@H]1c2cc3c(cc2[C@@H](c2cc(OC)c4nc5ccccc5nc4c2)[C@H]2C(=O)OC[C@@H]21)OCO3", "%", 0),
    ("CCCC(=O)O[C@@H]1c2cc3c(cc2[C@@H](c2cc(OC)c4nc5ccccc5nc4c2)[C@H]2C(=O)OC[C@@H]21)OCO3", "%", 3.3),
    ("COc1cc([C@@H]2c3cc4c(cc3[C@@H](OC(=O)c3ccccc3)[C@H]3COC(=O)[C@H]23)OCO4)cc2nc3ccccc3nc12", "%", 3.3),
    ("COc1cc([C@@H]2c3cc4c(cc3[C@@H](O)[C@H]3COC(=O)[C@H]23)OCO4)cc2nc3ccccc3nc12", "%", 3.3),
]

----------
# System: Mythimna separata
# protocol.details: Insecticidal activity against Mythimna separata (Oriental armyworm) pre-third-instar larvae fed on 1 mg/ml compound pre-treated wheat leaves assessed as insect mortality measured after 10 days by leaf-dipping method
# Type: functional
mortality: recorded values
outcome.measure: mortality (%)

# compound, observed.value
measured = [
    ("CCCCCCCCCCCCCCCC(=O)O[C@@H]1c2cc3c(cc2[C@@H](c2cc(OC)c4nc5ccccc5nc4c2)[C@H]2C(=O)OC[C@@H]21)OCO3", 0),
    ("CCCCCCCCCCCC(=O)O[C@@H]1c2cc3c(cc2[C@@H](c2cc(OC)c4nc5ccccc5nc4c2)[C@H]2C(=O)OC[C@@H]21)OCO3", 0),
    ("COc1cc([C@@H]2c3cc4c(cc3[C@H](O)[C@H]3COC(=O)[C@H]23)OCO4)cc(OC)c1OC", 6.7),
    ("COc1cc([C@@H]2c3cc4c(cc3[C@@H](OC(=O)c3ccccc3Cl)[C@H]3COC(=O)[C@H]23)OCO4)cc2nc3ccccc3nc12", 10),
    ("COc1cc([C@@H]2c3cc4c(cc3[C@@H](OC(=O)c3ccc(Cl)cc3)[C@H]3COC(=O)[C@H]23)OCO4)cc2nc3ccccc3nc12", 0),
    ("COc1cc([C@@H]2c3cc4c(cc3[C@@H](OC(=O)c3cccc(C)c3)[C@H]3COC(=O)[C@H]23)OCO4)cc2nc3ccccc3nc12", 6.7),
    ("COc1cc([C@@H]2c3cc4c(cc3[C@@H](OC(C)=O)[C@H]3COC(=O)[C@H]23)OCO4)cc2nc3ccccc3nc12", 6.7),
    ("COc1cc([C@@H]2c3cc4c(cc3[C@@H](OC(=O)c3ccc(Cl)c([N+](=O)[O-])c3)[C@H]3COC(=O)[C@H]23)OCO4)cc2nc3ccccc3nc12", 10),
    ("COc1cc([C@@H]2c3cc4c(cc3[C@@H](OC(=O)c3ccc([N+](=O)[O-])cc3)[C@H]3COC(=O)[C@H]23)OCO4)cc2nc3ccccc3nc12", 3.3),
    ("COc1cc([C@@H]2c3cc4c(cc3[C@@H](O)[C@H]3COC(=O)[C@H]23)OCO4)cc(OC)c1O [4'-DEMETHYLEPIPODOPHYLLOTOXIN]", 6.7),
    ("CCC(=O)O[C@@H]1c2cc3c(cc2[C@@H](c2cc(OC)c4nc5ccccc5nc4c2)[C@H]2C(=O)OC[C@@H]21)OCO3", 20),
    ("CC(=O)O[C@@H]1C[C@H](O)[C@@]23CO[C@@H](O)[C@]1(C)[C@@H]2C[C@@H](O)[C@]1(C)[C@@H]3C(=O)[C@H](OC(C)=O)[C@@]2(C)[C@H](c3ccoc3)C[C@H]3O[C@]321", 10),
    ("COc1cc([C@@H]2c3cc4c(cc3[C@@H](OC(=O)Cc3ccc5ccccc5c3)[C@H]3COC(=O)[C@H]23)OCO4)cc2nc3ccccc3nc12", 3.3),
]

----------
# Tested on: Mythimna separata
# protocol.details: Insecticidal activity against Mythimna separata (Oriental armyworm) pre-third-instar larvae fed on 1 mg/ml compound pre-treated wheat leaves assessed as insect mortality measured after 34 days by leaf-dipping method
# Type: functional
Catalogue of molecules with associated mortality
outcome.measure: mortality (%)

# molecule, display.unit, observed.value
measured = [
    ("COc1cc([C@@H]2c3cc4c(cc3[C@@H](OC(=O)c3ccccc3Cl)[C@H]3COC(=O)[C@H]23)OCO4)cc2nc3ccccc3nc12", "%", 51.7),
    ("COc1cc([C@@H]2c3cc4c(cc3[C@@H](O)[C@H]3COC(=O)[C@H]23)OCO4)cc(OC)c1O [4'-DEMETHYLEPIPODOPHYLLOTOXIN]", "%", 37.9),
    ("CCCCCCCCCCC(=O)O[C@@H]1c2cc3c(cc2[C@@H](c2cc(OC)c4nc5ccccc5nc4c2)[C@H]2C(=O)OC[C@@H]21)OCO3", "%", 37.9),
]

----------
As shown below, each of these compounds has a reported mortality value.
# Test system: Mythimna separata
# protocol.details: Insecticidal activity against Mythimna separata (Oriental armyworm) pre-third-instar larvae fed on 1 mg/ml compound pre-treated wheat leaves assessed as insect mortality measured after 34 days by leaf-dipping method
# Assay type: functional

# test.smiles, display.unit, mortality
records = [
    ("COc1cc([C@@H]2c3cc4c(cc3[C@@H](OC(=O)c3ccc(Cl)c([N+](=O)[O-])c3)[C@H]3COC(=O)[C@H]23)OCO4)cc2nc3ccccc3nc12", "%", 55.2),
    ("CCCCCCCCCCCCCCCC(=O)O[C@@H]1c2cc3c(cc2[C@@H](c2cc(OC)c4nc5ccccc5nc4c2)[C@H]2C(=O)OC[C@@H]21)OCO3", "%", 27.6),
    ("COc1cc([C@@H]2c3cc4c(cc3[C@@H](OC(=O)c3ccc([N+](=O)[O-])cc3)[C@H]3COC(=O)[C@H]23)OCO4)cc2nc3ccccc3nc12", "%", 37.9),
    ("COc1cc([C@@H]2c3cc4c(cc3[C@@H](OC(=O)c3ccc(Cl)cc3)[C@H]3COC(=O)[C@H]23)OCO4)cc2nc3ccccc3nc12", "%", 48.3),
    ("CCCCCCCCCCCC(=O)O[C@@H]1c2cc3c(cc2[C@@H](c2cc(OC)c4nc5ccccc5nc4c2)[C@H]2C(=O)OC[C@@H]21)OCO3", "%", 34.5),
    ("CC(=O)O[C@@H]1C[C@H](O)[C@@]23CO[C@@H](O)[C@]1(C)[C@@H]2C[C@@H](O)[C@]1(C)[C@@H]3C(=O)[C@H](OC(C)=O)[C@@]2(C)[C@H](c3ccoc3)C[C@H]3O[C@]321", "%", 51.7),
    ("COc1cc([C@@H]2c3cc4c(cc3[C@@H](OC(=O)c3cccc(C)c3)[C@H]3COC(=O)[C@H]23)OCO4)cc2nc3ccccc3nc12", "%", 41.4),
    ("COc1cc([C@@H]2c3cc4c(cc3[C@@H](OC(=O)c3cccc(Cl)c3)[C@H]3COC(=O)[C@H]23)OCO4)cc2nc3ccccc3nc12", "%", 41.4),
    ("COc1cc([C@@H]2c3cc4c(cc3[C@@H](OC(C)=O)[C@H]3COC(=O)[C@H]23)OCO4)cc2nc3ccccc3nc12", "%", 41.4),
    ("CCC(=O)O[C@@H]1c2cc3c(cc2[C@@H](c2cc(OC)c4nc5ccccc5nc4c2)[C@H]2C(=O)OC[C@@H]21)OCO3", "%", 55.2),
    ("COc1cc([C@@H]2c3cc4c(cc3[C@@H](OC(=O)c3ccccc3)[C@H]3COC(=O)[C@H]23)OCO4)cc2nc3ccccc3nc12", "%", 24.1),
    ("CCCC(=O)O[C@@H]1c2cc3c(cc2[C@@H](c2cc(OC)c4nc5ccccc5nc4c2)[C@H]2C(=O)OC[C@@H]21)OCO3", "%", 37.9),
    ("COc1cc([C@@H]2c3cc4c(cc3[C@@H](OC(=O)Cc3ccc5ccccc5c3)[C@H]3COC(=O)[C@H]23)OCO4)cc2nc3ccccc3nc12", "%", 51.7),
    ("COc1cc([C@@H]2c3cc4c(cc3[C@H](O)[C@H]3COC(=O)[C@H]23)OCO4)cc(OC)c1OC", "%", 34.5),
    ("COc1cc([C@@H]2c3cc4c(cc3[C@@H](O)[C@H]3COC(=O)[C@H]23)OCO4)cc2nc3ccccc3nc12", "%", 31),
]

Entry source: ChEMBL document CHEMBL3044697
